The origin of these recorded values is patent US4410516A.

assay: Acute toxicity by intravenous injection in mice; conditions: mouse, in vivo
# maps each entry to its LD50

Below are worked cases with known answers.
INSERT INTO assay_data (molecule, readout_kind, recorded_measurement) VALUES
  ('C[C@H]1O[C@H](O[C@@H]2C[C@H](O[C@H]3O[C@H](CN)CC[C@H]3N)[C@@H](N)C[C@H]2N)[C@H](O)[C@@H](N)[C@@H]1O', 'LD50', '25 to 50 mg/kg'),
  ('CNC[C@@H]1CC[C@@H](N)[C@@H](O[C@H]2C[C@@H](O[C@H]3O[C@H](CO)[C@@H](O)[C@H](N)[C@H]3O)[C@H](NC(=O)[C@@H](O)CCCN)C[C@@H]2N)O1', 'LD50', '50 to 100 mg/kg'),
  ('CNC[C@@H]1CC[C@@H](N)[C@@H](O[C@H]2C[C@@H](O[C@H]3O[C@H](CO)[C@@H](O)[C@H](N)[C@H]3O)[C@H](NC(=O)[C@@H](O)CCN)C[C@@H]2N)O1', 'LD50', '50 to 100 mg/kg'),
  ('NCC[C@H](O)C(=O)N[C@@H]1C[C@H](N)[C@@H](O[C@H]2O[C@H](CN)CC[C@H]2N)C[C@H]1O[C@H]1O[C@H](CO)[C@@H](O)[C@H](N)[C@H]1O', 'LD50', '25 to 50 mg/kg'),
  ('CNC[C@@H]1CC[C@@H](N)[C@@H](O[C@H]2C[C@@H](O[C@H]3O[C@H](CO)[C@@H](O)[C@H](N)[C@H]3O)[C@H](NC(=O)C(O)CN)C[C@@H]2N)O1 (some centres unmarked)', 'LD50', '50 to 100 mg/kg');

Which LD50 value belongs to NCC(O)C(=O)N[C@@H]1C[C@H](N)[C@@H](O[C@H]2O[C@H](CN)CC[C@H]2N)C[C@H]1O[C@H]1O[C@H](CO)[C@@H](O)[C@H](N)[C@H]1O (some centres unmarked) ? 25 to 50 mg/kg

Which LD50 value belongs to "CNC[C@@H]1CC[C@@H](N)[C@@H](O[C@H]2C[C@@H](O[C@H]3O[C@H](CO)[C@@H](O)[C@H](N)[C@H]3O)[C@H](N)C[C@@H]2N)O1" ? 50 to 100 mg/kg

Which LD50 value belongs to "C[C@H]1O[C@H](O[C@@H]2C[C@H](O[C@H]3O[C@H](CN)CC[C@H]3N)[C@@H](N)C[C@H]2NC(=O)[C@@H](O)CCN)[C@H](O)[C@@H](N)[C@@H]1O" ? 25 to 50 mg/kg

* * *

system: Klebsiella pneumoniae 22 #3038; test: Minimum inhibitory concentration, serial dilution on nutrient agar; assay type: cell-based; settings: 18 h
# maps each entry to its MIC
Give just the numeric value; µg/mL need not be written.

Below are worked cases with known answers.
INSERT INTO measurements (compound, tested_on, units_symbol, recorded_measurement) VALUES
  ('NCC(O)C(=O)N[C@@H]1C[C@H](N)[C@@H](O[C@H]2O[C@H](CN)CC[C@H]2N)C[C@H]1O[C@H]1O[C@H](CO)[C@@H](O)[C@H](N)[C@H]1O (stereo partly drawn) [AHP-trideoxyKMB]', 'Klebsiella pneumoniae 22 #3038', 'µg/mL', 6.25),
  ('NCC[C@H](O)C(=O)N[C@@H]1C[C@H](N)[C@@H](O[C@H]2O[C@H](CN)CC[C@H]2N)C[C@H]1O[C@H]1O[C@H](CO)[C@@H](O)[C@H](N)[C@H]1O [AHB-trideoxyKMB]', 'Klebsiella pneumoniae 22 #3038', 'µg/mL', 3.13),
  ('C[C@H]1O[C@H](O[C@@H]2C[C@H](O[C@H]3O[C@H](CN)CC[C@H]3N)[C@@H](N)C[C@H]2NC(=O)[C@@H](O)CCN)[C@H](O)[C@@H](N)[C@@H]1O [AHB-tetradeoxyKMB]', 'Klebsiella pneumoniae 22 #3038', 'µg/mL', 1.56),
  ('CNC[C@@H]1CC[C@@H](N)[C@@H](O[C@H]2C[C@@H](O[C@H]3O[C@H](CO)[C@@H](O)[C@H](N)[C@H]3O)[C@H](NC(=O)[C@@H](O)CCN)C[C@@H]2N)O1 [AHB-trideoxyMKMB]', 'Klebsiella pneumoniae 22 #3038', 'µg/mL', 1.56),
  ('CNC[C@@H]1CC[C@@H](N)[C@@H](O[C@H]2C[C@@H](O[C@H]3O[C@H](CO)[C@@H](O)[C@H](N)[C@H]3O)[C@H](NC(=O)[C@@H](O)CCCN)C[C@@H]2N)O1 [AHV-trideoxyMKMB]', 'Klebsiella pneumoniae 22 #3038', 'µg/mL', 3.13);

Which MIC value belongs to CNC[C@@H]1CC[C@@H](N)[C@@H](O[C@H]2C[C@@H](O[C@H]3O[C@H](CO)[C@@H](O)[C@H](N)[C@H]3O)[C@H](NC(=O)C(O)CN)C[C@@H]2N)O1 (stereo partly drawn) [AHP-trideoxyMKMB] ? 3.13
